- Tested on: mice
- Measurement Protocol: acute toxicity on mice (LD50, Litchfield-Wilcoxon, after a week)
- Type: in vivo
- Condition Set: i.v., 95% confidence limits on the next line, 10080 min
- Method: On the basis of the late occurrence of the ventricula extrasystole, ED125 and ED150 values were determined. The acute toxicities were determined on mice (CELP strain and the LD50 value was calculated after a week using the Litchfield-Wilcoxon method. The antiarrhythmically effective dosage or the LD50 value for several compounds of the various compound types are collected in Table III.
Assign LD50 (acute toxicity) to each entry below.
One number for each entry, in mg/kg.

Before answering, review these 2 worked examples.
INSERT INTO results (compound, property, units_of_measure, measurement) VALUES
  ('Cc1cccc(C)c1NC(=O)CNC(=O)C1=CC(C)(C)NC1(C)C [Compound 19]', 'LD50 (acute toxicity)', 'mg/kg', 53),
  ('Cc1cccc(C)c1NC(=O)C(C)NC(=O)C1=CC(C)(C)NC1(C)C (stereo not shown) [Compound 20]', 'LD50 (acute toxicity)', 'mg/kg', 15);

Provide reported LD50 (acute toxicity) for each item, in the same order as listed.
1. CC1(C)C=C(C(=O)NC(c2ccccc2)c2ccccc2)C(C)(C)N1 [Compound 6]
2. Cc1cccc(C)c1OCC(C)NC(=O)C1=CC(C)(C)NC1(C)C (stereo not shown) [Compound 9]

## Output
[63, 11]

----------
Field: ED150. Provide a value for each of the compounds that follow.
- Test system: aconitin arrhythmia
- Measurement Protocol: aconitin arrhythmia model on rats (time to ventricular extrasystole, tachycardia, fibrillation; ED125, ED150)
- Type: in vivo, Wistar rats
- Condition Set: Rattus norvegicus, iv, infusion time to extrasystol 9.2 (control 6.1 minutes), 95% confidence limits on the next line, read-out: ED150 (delay of chamber extrasystol)
Form field: result (number plus unit)

INSERT INTO measurements (compound, measurement) VALUES
  ('Cc1cccc(C)c1OCC(C)NC(=O)C1=CC(C)(C)NC1(C)C (centres unmarked) [Compound 9]', '0.9 mg/kg'),
  ('CC1(C)C=C(C(=O)NC(c2ccccc2)c2ccccc2)C(C)(C)N1 [Compound 6]', '23.1 mg/kg'),
  ('Cc1cccc(C)c1OCC(C)NC(=O)C1CC(C)(C)NC1(C)C (centres unmarked) [Compound 11]', '0.39 mg/kg'),
  ('Cc1cccc(C)c1NC(=O)CNC(=O)C1=CC(C)(C)NC1(C)C [Compound 19]', '2.44 mg/kg');

Could you now look at the following compound, please?
## Input Look at this compound and give its reported ED150. Cc1cccc(C)c1NC(=O)C(C)NC(=O)C1=CC(C)(C)NC1(C)C (centres unmarked) [Compound 20]
## Output 1.91 mg/kg

----------
For each of the compounds below, state its log10 of ED125.
- Tested on: aconitin arrhythmia
- Measurement Protocol: aconitin arrhythmia model on rats (time to ventricular extrasystole, tachycardia, fibrillation; ED125, ED150)
- Assay type: in vivo, Wistar rats
- Condition Set: Rattus norvegicus, iv, infusion time to extrasystol 7.6 (control 6.1 minutes), 95% confidence limits on the next line, read-out: ED125 (delay of chamber extrasystol)
For clarity, the numbers are log10 values of ED125 expressed in mg/kg.

Use the examples below as a reference point.
INSERT INTO measurements (compound, property, measurement) VALUES
  ('C=CC1CN2CCC1CC2C(O)c1ccnc2ccc(OC)cc12 (stereo not drawn) [chinidin, reference compound]', 'log10 of ED125', 0.83),
  ('CC1(C)C=C(C(=O)NC(c2ccccc2)c2ccccc2)C(C)(C)N1 [Compound 6]', 'log10 of ED125', 0.73),
  ('Cc1cccc(C)c1NC(=O)C(C)NC(=O)C1=CC(C)(C)NC1(C)C (stereo not drawn) [Compound 20]', 'log10 of ED125', 0.08),
  ('Cc1cccc(C)c1NC(=O)CNC(=O)C1=CC(C)(C)NC1(C)C [Compound 19]', 'log10 of ED125', 0.18),
  ('Cc1cccc(C)c1OCC(C)NC(=O)C1CC(C)(C)NC1(C)C (stereo not drawn) [Compound 11]', 'log10 of ED125', -0.59);

Proceeding to the next compound to report its log10 of ED125.
## Input Look at this compound and give its reported log10 of ED125. Cc1cccc(C)c1OCC(C)NC(=O)C1=CC(C)(C)NC1(C)C (stereo not drawn) [Compound 9]
## Output -0.22

All values here come from patent US4731376A.
